meta.source: patent US7148229B2

- MEASURED_ON: recombinant human cytosolic PEPCK (GST-PEPCK) (Homo sapiens)
- Sequence (P35558 whole entry): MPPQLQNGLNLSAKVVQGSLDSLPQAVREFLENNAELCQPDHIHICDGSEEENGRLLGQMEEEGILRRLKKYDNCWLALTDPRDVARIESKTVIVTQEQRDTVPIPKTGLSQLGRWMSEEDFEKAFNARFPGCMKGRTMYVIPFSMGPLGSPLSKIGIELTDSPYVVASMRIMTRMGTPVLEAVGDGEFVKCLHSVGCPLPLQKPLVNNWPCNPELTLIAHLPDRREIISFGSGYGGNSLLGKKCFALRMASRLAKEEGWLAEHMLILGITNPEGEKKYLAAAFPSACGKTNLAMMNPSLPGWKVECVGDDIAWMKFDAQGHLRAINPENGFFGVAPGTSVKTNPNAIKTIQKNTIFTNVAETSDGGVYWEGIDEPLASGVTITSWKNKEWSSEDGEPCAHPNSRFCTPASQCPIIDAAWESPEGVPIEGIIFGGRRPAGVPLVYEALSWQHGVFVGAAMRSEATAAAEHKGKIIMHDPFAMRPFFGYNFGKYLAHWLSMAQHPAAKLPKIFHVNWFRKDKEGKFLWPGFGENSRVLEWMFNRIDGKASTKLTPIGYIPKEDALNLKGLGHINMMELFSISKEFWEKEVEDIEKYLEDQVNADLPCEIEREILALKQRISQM
- METHOD_NOTES: PEPCK enzyme assay (coupled to pyruvate kinase / lactate dehydrogenase, absorbance at 340 nm)
- CONDITIONS_USED: in vitro PEPCK enzymatic assay; GTP at 3 fold and OAA at 10 fold Km; final DMSO 10%; room temperature, twenty minutes
QUANTITY_MEASURED: IC50 (µM)

CCCCn1c(=O)n(Cc2ccccc2F)c(=O)c2[nH]c(Cc3ccc(S(=O)(=O)Nc4c(C)nn(C)c4C)cc3)nc21: 6.45

A. CCCCn1c(=O)n(Cc2ccccc2)c(=O)c2[nH]c(Cc3ccc(NS(=O)(=O)c4ccc(C)cc4)cc3)nc21
B. Cc1nc(S(=O)(=O)Nc2ccc(Cc3nc4c([nH]3)c(=O)n(Cc3ccccc3F)c(=O)n4CC3CC3)cc2)cn1C
C. O=c1c2[nH]c(Cc3ccc(NS(=O)(=O)c4cnc(Cl)c(Br)c4)cc3)nc2n(CC2CC2)c(=O)n1Cc1ccccc1F
Please list these in order of increasing IC50. Thank you! A complete answer lists every label in the requested sequence. B, C, A
